Reported pIC50 is given for each of the following compounds.
molecular target: native MDH (Sus scrofa); construct: soluble pig heart MDH from Roche, product #10127248001; purchased Roche 10127248001; host or cells: pig heart; assay: Native MDH enzymatic activity counter-screen; type: biochemical, pig; details: Table 2; compounds added after refolding and EDTA quench; read-out: Biochemical Assay IC50 Native MDH Activity
Sequence (P00346 25-338): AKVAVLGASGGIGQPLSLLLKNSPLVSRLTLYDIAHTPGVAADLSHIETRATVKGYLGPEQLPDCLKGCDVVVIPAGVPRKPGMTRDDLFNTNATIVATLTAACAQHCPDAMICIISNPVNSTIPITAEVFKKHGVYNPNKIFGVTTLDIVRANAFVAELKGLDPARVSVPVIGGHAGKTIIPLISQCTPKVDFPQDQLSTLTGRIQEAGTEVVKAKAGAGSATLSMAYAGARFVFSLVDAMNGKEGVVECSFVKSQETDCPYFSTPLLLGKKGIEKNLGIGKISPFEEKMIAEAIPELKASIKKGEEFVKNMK
pIC50: −log10 of the molar value.
Quantity: pIC50

1) Cc1cc(C(C#N)c2ccc(Cl)cc2)c(Cl)cc1NC(=O)c1cc(Br)ccc1O (stereo not drawn) : 4.26
2) Cc1cc(C(C#N)c2ccc(Cl)cc2)c(Cl)cc1NC(=O)c1cccc(Cl)c1O (stereo not drawn) : 4.24
3) Cc1cc(C(C#N)c2ccc(Cl)cc2)c(Cl)cc1NC(=O)c1ccccc1N (stereo not drawn) : < 4.20
4) Cc1cc(C(C#N)c2ccc(Cl)cc2)c(Cl)cc1NC(=O)c1cccc(O)c1 (stereo not drawn) : < 4.20
5) Cc1cc(C(C#N)c2ccc(Cl)cc2)c(Cl)cc1NC(=O)c1ccc(F)cc1 (stereo not drawn) : < 4.20
6) Cc1cc(C(C#N)c2ccc(Cl)cc2)c(Cl)cc1NC(=O)c1cccc(Cl)c1 (stereo not drawn) : < 4.20
7) COc1c(Cl)cc(Cl)cc1C(=O)Nc1cc(Cl)c(C(C#N)c2ccc(Cl)cc2)cc1C (stereo not drawn) : < 4.20
8) COc1cccc(C(=O)Nc2cc(Cl)c(C(C#N)c3ccc(Cl)cc3)cc2C)c1 (stereo not drawn) : < 4.20
9) Cc1cc(C(C#N)c2ccc(Cl)cc2)c(Cl)cc1NC(=O)c1ccccc1O (stereo not drawn) : < 4.20

---

molecular target: HSP60/10 (Homo sapiens, UniProt P10809); construct: octa-Histidine (His8) tag, TEV-cleavable (N, cleaved yes); made in house; host or cells: HSP60 in Rosetta 2 (DE3) E. coli; HSP10 in Rosetta 2 (DE3) pLysS; experiment: HSP60/10-mediated dMDH refolding assay; format: biochemical; settings: Table 1; 37° C., 1 mM ATP; read-out: Biochemical Assay IC50 HSP60/10-dMDH Refolding
Sequence (P10809 27-573): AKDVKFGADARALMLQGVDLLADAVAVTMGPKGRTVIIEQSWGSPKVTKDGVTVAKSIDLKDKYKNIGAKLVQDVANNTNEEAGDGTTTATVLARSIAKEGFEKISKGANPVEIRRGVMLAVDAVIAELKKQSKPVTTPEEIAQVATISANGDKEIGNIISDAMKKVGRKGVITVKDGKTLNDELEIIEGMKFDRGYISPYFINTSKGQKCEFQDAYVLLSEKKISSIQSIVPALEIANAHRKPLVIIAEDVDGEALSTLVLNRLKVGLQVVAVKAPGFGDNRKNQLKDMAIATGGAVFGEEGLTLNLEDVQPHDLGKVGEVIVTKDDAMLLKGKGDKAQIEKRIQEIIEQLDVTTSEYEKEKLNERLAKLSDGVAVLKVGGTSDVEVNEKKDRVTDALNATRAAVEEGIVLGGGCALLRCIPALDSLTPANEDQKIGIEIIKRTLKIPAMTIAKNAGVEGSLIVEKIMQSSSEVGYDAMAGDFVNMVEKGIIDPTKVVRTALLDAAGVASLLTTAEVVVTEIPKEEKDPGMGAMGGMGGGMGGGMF
pIC50: −log10 of the molar value.
Reported pIC50 is given for each of the following compounds.
Quantity: pIC50

1. O=C(Nc1ncc([N+](=O)[O-])s1)c1ccccc1O [Tizoxanide, reference compound] : < 4.00
2. O=C(Nc1ccc([N+](=O)[O-])cc1Cl)c1cc(Cl)ccc1O [Niclosamide, reference compound] : < 4.00
3. CC(=O)Oc1ccccc1C(=O)Nc1ncc([N+](=O)[O-])s1 [Nitazoxanide, reference compound] : < 4.00

---

assay: HEK 293 kidney cell viability / cytotoxicity assay (Alamar Blue); assay type: cell-based; conditions: human, HEK 293 kidney cells; Table 3; 48 h incubation, Alamar Blue; read-out: HEK 293 Kidney Cell Viability CC50
Quantity: CC50 at 48 h

1) COc1ccc(Cl)cc1C(=O)Nc1ccc(C(C#N)c2ccccc2)cc1 (stereo not drawn) : > 100 µM
2) COc1ccc(Cl)cc1C(=O)Nc1ccc(OCc2ccccc2)cc1 : > 100 µM
3) COc1ccc(Cl)cc1C(=O)Nc1ccc(Cc2ccccc2)cc1 : > 100 µM

---

target: native MDH (Sus scrofa); construct: soluble pig heart MDH from Roche, product #10127248001; purchased Roche 10127248001; host or cells: pig heart; assay: Native MDH enzymatic activity counter-screen; format: biochemical, pig; settings: Table 1; compounds added after refolding and EDTA quench; read-out: Biochemical Assay IC50 Native MDH Activity
Quantity: IC50

1) CC(=O)Oc1ccccc1C(=O)Nc1ncc([N+](=O)[O-])s1 [Nitazoxanide, reference compound] : > 63 µM
2) O=C(Nc1ncc([N+](=O)[O-])s1)c1ccccc1O [Tizoxanide, reference compound] : > 63 µM
3) O=C(Nc1ccc([N+](=O)[O-])cc1Cl)c1cc(Cl)ccc1O [Niclosamide, reference compound] : > 63 µM

---

assay: HEK 293 kidney cell viability / cytotoxicity assay (Alamar Blue); type: cell-based; settings: human, HEK 293 kidney cells; Table 2; 48 h incubation, Alamar Blue; read-out: HEK 293 Kidney Cell Viability CC50
Reported CC50 at 48 h is given for each of the following molecules.
Quantity: CC50 at 48 h

1. COc1ccccc1C(=O)Nc1cc(Cl)c(C(C#N)c2ccc(Cl)cc2)cc1C (stereo not drawn) : > 100 µM
2. Cc1cc(C(C#N)c2ccc(Cl)cc2)c(Cl)cc1NC(=O)c1cccc(Cl)c1 (stereo not drawn) : > 100 µM
3. Cc1cc(C(C#N)c2ccc(Cl)cc2)c(Cl)cc1NC(=O)c1ccc([N+](=O)[O-])cc1 (stereo not drawn) : > 100 µM
